Target: T1, recombinant human CD70 (Flag-TNC-CD70) (human, UniProt P32970 39-193)
T1 construct: extracellular domain; Captured by anti-Flag mAb in ELISA; as 'recombinant human CD70' immobilised on Biacore CM5 chips; TNC is for trimerisation; also called recombinant CD70; human recombinant CD70; not shown: Flag tag and TNC trimerisation domain
T1 sequence (looked up): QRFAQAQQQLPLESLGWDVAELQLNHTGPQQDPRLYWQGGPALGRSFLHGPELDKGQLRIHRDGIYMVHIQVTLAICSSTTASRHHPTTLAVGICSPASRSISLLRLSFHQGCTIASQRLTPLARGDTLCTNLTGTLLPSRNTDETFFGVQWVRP
Experiment: inhibition ELISA: Flag-TNC-CD70 captured by anti-Flag mAb, Fab titrated, remaining binding of CD27-Fc detected
# IC50 (read off the curve) annotations

19G10 Fab (Fab, V domains shown, Llama-derived Fab) VH: EVQLQESGGGVVQPGGSLRLSCAASGFTFDDYAMSWVRQAPGKGLEWVSSIYMYDSSTYYADSVKGRFTISTDNAKNTVYLQMNSLKSEDTAVYYCAKDINRSYGSSWSHFGPIFSSWGQGTQVTVSS VL: NFMLTQPSAVSVSLGQTARITCQGGYYTHWYQQKPGQAPVLVIYVNNNRPSGIPERFSGSSSGNTATLTISGAQAEDEAAYYCQSGSSSTIPVFGGGTKLTVLG : ~0.04 µg/mL

Problem: Consider the binder shown here: 9D1 Fab (Fab, V domains shown, Llama-derived Fab) VH: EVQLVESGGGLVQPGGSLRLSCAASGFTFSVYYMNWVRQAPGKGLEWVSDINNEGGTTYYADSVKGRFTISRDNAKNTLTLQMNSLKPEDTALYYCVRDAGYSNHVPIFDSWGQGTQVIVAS VL: QAVVTQEPSLSVSPGGTVTLTCGLSSGSVTSSHYPGWYQQTPGQAPRLLIFNTNSRHSGVPSRFSGSISGNKAALTITGAQPEDEADYYCALLNIDDGSTMFGGGTHLTVLG What is its recorded IC50 (read off the curve)?
Solution: ~0.2 µg/mL

Origin of measurements: patent US20150266963A1
